# Subject of test: T1, biotinylated CRH (human and mouse, not fully specified; biotinylated, position not stated)
# T1 construct: also called Biotin-CRH; biotin-labeled CRH
# T1 peptide: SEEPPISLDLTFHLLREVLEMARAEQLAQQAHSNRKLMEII
# Assay name: Octet BLI, biotinylated CRH on SA sensor
Value type: pKd
One number for each entry, as −log10 of the molar value.

Below are 2 binders. Give each one its pKd.
1. PR006150 (antibody, human IgG1, kappa, V domains shown, PTM-removal variant of PR004290) VH: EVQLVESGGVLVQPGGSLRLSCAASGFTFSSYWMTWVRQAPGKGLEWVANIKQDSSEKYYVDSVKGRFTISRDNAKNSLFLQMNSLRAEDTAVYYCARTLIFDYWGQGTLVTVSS VL: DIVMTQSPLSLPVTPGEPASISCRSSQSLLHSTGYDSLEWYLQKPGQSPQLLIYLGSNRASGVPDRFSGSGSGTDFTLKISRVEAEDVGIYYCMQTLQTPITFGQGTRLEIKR
2. PR006669 (antibody, human IgG1, kappa, V domains shown, Series 2; human IgG1 wildtype Fc; also called Hybridoma Clone 52g7) VH: EVQLVESGGGLVQPGGSLRLSCAASGFTFSDNWMSWVRQAPGKGLEWVANIKQDGSENYYVDSVKGRFTISRDNAKNSLYLQMNSLRAEDTAVYYCSRGLALWGWGQGTLVTVSS VL: DIVMTHSPLSLPVTPGDPASISCRSSQSLLHSTGYNYLDWYLQKPGQSPQLLIYLGSNRASGVPDRFSGSGSGTDFTLKFIRVEAEDVGVYYCMQALQTPYTFGQGTKLEIKR

OUT:
[9.99, 9.92]
